- System: SW-620
- protocolSummary: NCI tumour cell line growth inhibition, 48 h
Active and inactive are the calls of the source. No stated cut-off is given here; in the data, active = GI50 up to about 1.1 µM and inactive = higher.
For each entry below, report its GI50 value.

Query O=C1c2ccccc2C(=O)N1CCn1nc(-c2ccccc2)cc(-c2ccccc2)c1=O on SW-620; GI50 returned: > 100 µM (inactive)

Query CCCCCCCCCCCC(=O)OCC1OC(n2cc(F)c(=O)[nH]c2=O)C(N)C(O)C1O (centres undefined) on SW-620; GI50 returned: > 100 µM (inactive)

Query COC(=O)C[C@H](COCc1ccccc1)NC(=O)C[C@H](COCc1ccccc1)NC(=O)OC(C)(C)C on SW-620; GI50 returned: 55.8 µM (inactive)

Query COC(=O)[C@]12CC3C=CC1N(C3)C(CBr)c1c2n(S(=O)(=O)c2ccccc2)c2ccccc12 (some centres undefined) on SW-620; GI50 returned: > 100 µM (inactive)

Query C=CCOCn1ccc(NC(=O)c2ccccc2)nc1=O on SW-620; GI50 returned: > 100 µM (inactive)

Query O=C(Nc1ccccc1)N(C1=NCC(CI)S1)c1ccc(F)cc1F (centres undefined) on SW-620; GI50 returned: 62.1 µM (inactive)

Query CCCCCCCCCCCCCCCC(=O)OCC1OC(OC)C2NP(=O)(N(CCCl)CCCl)OC1C2O (centres undefined) on SW-620; GI50 returned: 2.22 µM (inactive)

Query CC(C)=C1C(=O)C[C@]2(C)C[C@H]3/C(=C(/C)CCC12)CC[C@@]3(C)O (some centres undefined) on SW-620; GI50 returned: > 50 µM (inactive)

Query Cc1cc(Cc2c(C)c(C)c(Cc3cc(C)cc(C(C)(C)C)c3O)c(C)c2C)c(O)c(C(C)(C)C)c1 on SW-620; GI50 returned: > 100 µM (inactive)

###

- Test system: A549
- protocolSummary: NCI tumour cell line growth inhibition, 48 h
Calls of active or inactive are those of the source. No stated cut-off is given here; in the data, active = GI50 up to about 1.1 µM and inactive = higher.
observable: GI50

Measured GI50 of O=C1C(=O)N(c2cc(Cl)ccc2Cl)C(=O)C(=O)C1c1nc2ccccc2o1 : > 100 µM (inactive)

Measured GI50 of CNC(C)Cc1ccc(O)cc1 (configuration not stated) : > 100 µM (inactive)

Measured GI50 of O=C(c1ccccc1)c1c(CC(O)c2cccnc2)n(C(=O)c2ccccc2)c2ccccc12 (configuration not stated) : 29.4 µM (inactive)

Measured GI50 of Cc1ccc(Nc2nc(=S)[nH]c3[nH]ncc23)cc1 : 61.2 µM (inactive)

Measured GI50 of CC1=NN(C(=O)Cc2ccccc2)C(=O)/C1=C\C=C\c1ccccc1 : > 100 µM (inactive)

Measured GI50 of C=CCNC(=O)NNC(O)(C(=O)OCC)C(F)(F)F (configuration not stated) : > 100 µM (inactive)

Measured GI50 of Cc1ccc(-c2cc(-c3cc(-c4ccc(C)cc4C)[nH]n3)[nH]n2)c(C)c1 : 13.9 µM (inactive)

Measured GI50 of Nc1ncnc2c1ncn2CC(O)CO (configuration not stated) : > 100 µM (inactive)

Measured GI50 of C=C1C(=O)OC2/C=C(/C)C3(O)OC(C)(CC(OC(=O)C(C)C)C12)CC3OC(C)=O (configuration not stated) : 10.8 µM (inactive)

Measured GI50 of O=C(O)CP(=S)(S)c1ccccc1 (configuration not stated) : > 100 µM (inactive)

Measured GI50 of CN(C)C(=C1C(Br)=C(Br)C(Br)=C1Br)N(C)C : > 100 µM (inactive)

Measured GI50 of CC1NOC(=O)C1/N=N/c1ccccc1Cl (configuration not stated) : 63.7 µM (inactive)

Measured GI50 of C/C(=N\N(C)C)C(CN1CCCCC1)C(c1ccccc1)c1c(O)c2ccccc2oc1=O (configuration not stated) : > 100 µM (inactive)

Measured GI50 of Oc1cccc2nc3cc(CN4CCOCC4)c(CN4CCOCC4)cc3nc12 : 40.5 µM (inactive)

Measured GI50 of CC1(C)CCc2cc3c(cc2O1)OC(C)(C)C1c2c(ccc4c2CCC(C)(C)O4)OC31 (configuration not stated) : > 100 µM (inactive)

Measured GI50 of CC1(O)C(C)(O)C(C)(O)C1(C)O (configuration not stated) : > 100 µM (inactive)

Measured GI50 of C#C[C@]1(O)CC[C@H]2[C@@H]3CCC4=C/C(=N\OCCN5CCCCC5)CC[C@]4(C)[C@H]3CC[C@@]21C : 7.08 µM (inactive)

Measured GI50 of CCOP(=O)(OCC)/C(C#N)=C/c1ccccn1 : > 100 µM (inactive)

Measured GI50 of Cc1sc2nc(-c3cccc([N+](=O)[O-])c3)c(/C=N/N=C(N)N)n2c1C : 1.66 µM (inactive)

Measured GI50 of CN(Cc1cnc2nc(N)nc(N)c2n1)c1ccc(C(=O)NC(CCC(=O)NCCC(P(=O)(O)O)P(=O)(O)O)C(=O)O)cc1 (configuration not stated) : 11.6 µM (inactive)

Measured GI50 of N=c1oc2cc(O)c(O)cc2cc1C(N)=O : > 100 µM (inactive)

Measured GI50 of CCC1=NC(CO)[C@H](c2ccccc2)O1 (some centres not stated) : > 100 µM (inactive)

###

- System: SF-268
- protocolSummary: NCI tumour cell line growth inhibition, 48 h
Active and inactive are the calls of the source. Rule as the data show it: active = GI50 up to about 1.1 µM and inactive = higher.
The reply should be one of these categories: t for active, f for inactive

Which result was noted for this molecule in the test: CCOC(O)(NC(=O)C(C(F)(F)F)C(F)(F)F)C(F)(F)F (stereo unspecified) f

Which result was noted for this molecule in the test: CCCCCCCCCCCC(=O)OCC1OC(n2cc(F)c(=O)[nH]c2=O)C(N)C(O)C1O (stereo unspecified) f

Which result was noted for this molecule in the test: NC(=O)c1csc(CCCCCCc2nc(C(N)=O)cs2)n1 f

Which result was noted for this molecule in the test: O=C(O)CP(=S)(S)c1ccccc1 (stereo unspecified) f

Which result was noted for this molecule in the test: Nc1ncnc2c1ncn2C1OC(CO)CC1O (stereo unspecified) f

Which result was noted for this molecule in the test: COC(=O)C[C@H](COCc1ccccc1)NC(=O)C[C@H](COCc1ccccc1)NC(=O)OC(C)(C)C f

Which result was noted for this molecule in the test: COC(OC)c1cccc2c1C(=O)CCC1(O)c3ccccc3C1C2 (stereo unspecified) f

Which result was noted for this molecule in the test: O/N=C1/COC(C(F)(F)F)(C(F)(F)F)C1 f

Which result was noted for this molecule in the test: CCCCCCCCCCCC(=O)OCC(O)CO (stereo unspecified) [GLYCEROL MONOLAURATE] f

Which result was noted for this molecule in the test: Cc1ccc(Cc2nn(C)c(=O)n2-n2cccc2)cc1 f

Which result was noted for this molecule in the test: C[C@]12CCC3c4ccc(OC(=O)c5ccccc5)cc4CC[C@H]3C1CC[C@@H]2OC(=O)C12OC1CCC2=O (stereo partly specified) f

Which result was noted for this molecule in the test: CC1(C)[C@@H](Cn2nnc3c(N)ncnc32)CC[C@@]1(C)CO f

Which result was noted for this molecule in the test: Cc1ccc(NS(=O)(=O)c2cc(C(C)(C)C)ccc2OCCOCCOCCOc2ccc(C(C)(C)C)cc2S(=O)(=O)Nc2ccc(C)cc2)cc1 f

Which result was noted for this molecule in the test: CC1=NN(c2nc(N)nc(CSCc3nc(N)nc(N(C)C)n3)n2)C(C)(C)C1 f

Which result was noted for this molecule in the test: CN(Cc1cnc2nc(N)nc(N)c2n1)c1ccc(C(=O)NC(CCC(=O)NCCC(P(=O)(O)O)P(=O)(O)O)C(=O)O)cc1 (stereo unspecified) f

Which result was noted for this molecule in the test: O=C(Nc1ccccc1)N(C1=NCC(CI)S1)c1ccc(F)cc1F (stereo unspecified) f

Which result was noted for this molecule in the test: COc1ccc(/N=N/N2CCCC2)cc1 f

Which result was noted for this molecule in the test: COC(=O)c1cc(OS(=O)(=O)C(F)(F)F)c(=O)n2c1CCCC2 f

Which result was noted for this molecule in the test: COC1=CC(=O)C(C2(OC(C)C)OC(=O)C(Cl)=C2Cl)=CC1=O (stereo unspecified) f

Which result was noted for this molecule in the test: O=C(O)c1cc2cc(OCc3ccccc3)ccc2[nH]1 f

Which result was noted for this molecule in the test: COc1cc([C@@]23OC[C@@H]4[C@@H](OC[C@@H]42)c2cc4c(cc23)OCO4)cc(OC)c1OC t

###

For each entry below, report its GI50 value.
- System: UO-31
- protocolSummary: NCI tumour cell line growth inhibition, 48 h
Active and inactive are the calls of the source. Rule as the data show it: active = GI50 up to about 1.1 µM and inactive = higher.

Measured GI50 of Cc1c[n+]2c3ccccc3c3ccccc3c2s1.[O-][Cl+3]([O-])([O-])[O-] : 3.25 µM (inactive)

Measured GI50 of N#Cc1c(N)nc(Sc2ccccc2N)c(C#N)c1-c1ccccc1 : 11.4 µM (inactive)

Measured GI50 of OC1CN2CCS[C@H]2C(O)C1O (some centres undefined) : > 100 µM (inactive)

Measured GI50 of COc1cccc(-c2cc(=O)c3cc(N4CCCCC4)ccc3[nH]2)c1 : 7.29 µM (inactive)

Measured GI50 of CCC(C#N)NCc1cccc(CNC(C#N)CC)c1 (centres undefined) : > 100 µM (inactive)

Measured GI50 of Nc1ccc2nc3n(c2c1)C(c1c(F)cccc1F)SC3 (centres undefined) : 72.6 µM (inactive)

Measured GI50 of CN(C)Cc1cc(/N=N/c2ccccc2)ccc1O : 21.9 µM (inactive)

Measured GI50 of COc1ccc2c(c1)/C(=C\c1c(Cl)[nH]c3ccccc13)C(=O)N2 : 6.78 µM (inactive)

Measured GI50 of O=[N+]([O-])c1cccc(-c2ncnc(-c3cccc([N+](=O)[O-])c3)n2)c1 : > 100 µM (inactive)

Measured GI50 of Nc1nc(-c2ccccc2)cc(-c2ccc(F)cc2)c1-c1ccc(Cl)cc1 : > 100 µM (inactive)

Measured GI50 of C=C1C(=O)OC2/C=C(/C)C3(O)OC(C)(CC(OC(=O)C(C)C)C12)CC3OC(C)=O (centres undefined) : 6.17 µM (inactive)

Measured GI50 of CC(=O)c1ccc2c(c1)c1c(C)c3c[n+](C)ccc3c(C)c1n2C : 3.36 µM (inactive)

Measured GI50 of Cc1ccccc1C1CC(=O)CC(c2ccccc2C)C12C(=O)NC(=O)NC2=O (centres undefined) : > 100 µM (inactive)

Measured GI50 of OC1(c2ccc(Cl)cc2)c2c(ccc3c2OCO3)C2=NCCN21 (centres undefined) : 38.5 µM (inactive)

Data origin, for the record: ChEMBL document CHEMBL1201862
